These measurements were taken from ChEMBL document CHEMBL4387766.

target: UniProt:Q04609; assay: Inhibition of PSMA in human LNCAP cells using NAAG as substrate measured after 2 hrs by amplex red reagent based fluorescence assay
Sequence (Q04609 whole entry): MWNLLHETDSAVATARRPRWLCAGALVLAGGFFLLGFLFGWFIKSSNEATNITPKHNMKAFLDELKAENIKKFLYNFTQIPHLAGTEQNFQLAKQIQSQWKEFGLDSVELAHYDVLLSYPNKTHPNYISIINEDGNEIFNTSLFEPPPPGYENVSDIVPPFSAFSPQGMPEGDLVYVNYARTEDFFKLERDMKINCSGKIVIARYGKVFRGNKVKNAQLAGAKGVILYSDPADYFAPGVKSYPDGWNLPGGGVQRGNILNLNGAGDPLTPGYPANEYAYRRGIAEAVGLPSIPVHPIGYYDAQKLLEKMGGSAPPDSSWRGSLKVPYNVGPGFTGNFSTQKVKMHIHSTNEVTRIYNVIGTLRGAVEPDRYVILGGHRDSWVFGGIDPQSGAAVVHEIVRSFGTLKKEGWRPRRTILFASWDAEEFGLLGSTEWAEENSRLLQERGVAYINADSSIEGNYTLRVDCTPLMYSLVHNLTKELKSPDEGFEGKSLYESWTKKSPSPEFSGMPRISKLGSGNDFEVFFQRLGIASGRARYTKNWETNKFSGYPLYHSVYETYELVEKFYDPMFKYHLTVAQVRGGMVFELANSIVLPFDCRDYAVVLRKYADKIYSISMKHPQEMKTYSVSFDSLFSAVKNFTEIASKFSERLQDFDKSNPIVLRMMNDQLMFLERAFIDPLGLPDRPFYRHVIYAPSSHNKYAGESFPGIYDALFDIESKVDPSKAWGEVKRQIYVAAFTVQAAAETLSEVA
# IC50 annotations
property: IC50 (nM)

>>> df
                               smiles_input  property  reported_value
0  [N-]=[N+]=NCCCCCC(=O)N(CCCC[C@H](NC(=O)N[C@@H](CCC(=O)O)C(=O)O)C(=O)O)Cc1ccc(Cl)cc1      IC50             110
1  NCCCC[C@H](NC(=O)N[C@@H](CCC(=O)O)C(=O)O)C(=O)O      IC50            1470
2  [N-]=[N+]=NCCCCCC(=O)N(CCCC[C@H](NC(=O)N[C@@H](CCC(=O)O)C(=O)O)C(=O)O)Cc1ccc(O)cc1      IC50             140
3  [N-]=[N+]=NCCCCCC(=O)N(CCCC[C@H](NC(=O)N[C@@H](CCC(=O)O)C(=O)O)C(=O)O)Cc1ccc(Br)cc1      IC50             170

====

assay: Cytotoxicity against human VA13 cells assessed as reduction in cell viability measured after 72 hrs by MTT assay; assay type: cell-based; details: WI-38 VA13 cells

molecule	rel	CC50 at 72 h (nM)
CC(=O)O[C@H]1C(=O)[C@@]2(C)[C@H]([C@H](OC(=O)c3ccccc3)[C@]3(O)C[C@H](OC(=O)[C@H](OC(=O)CCCc4cn(CCCCCCCCCCNC(=O)NCCCC[C@H](NC(=O)N[C@@H](CCC(=O)O)C(=O)O)C(=O)O)nn4)[C@@H](NC(=O)c4ccccc4)c4ccccc4)C(C)=C1C3(C)C)[C@]1(OC(C)=O)CO[C@@H]1C[C@@H]2O	=	101
[N-]=[N+]=NCCCCCC(=O)N(CCCC[C@H](NC(=O)N[C@@H](CCC(=O)O)C(=O)O)C(=O)O)Cc1ccc(Cl)cc1	>	100000
CC(=O)O[C@H]1C(=O)[C@@]2(C)[C@H]([C@H](OC(=O)c3ccccc3)[C@]3(O)C[C@H](OC(=O)[C@H](OC(=O)CCCc4cn(CCCCCNC(=O)NCCCC[C@H](NC(=O)N[C@@H](CCC(=O)O)C(=O)O)C(=O)O)nn4)[C@@H](NC(=O)c4ccccc4)c4ccccc4)C(C)=C1C3(C)C)[C@]1(OC(C)=O)CO[C@@H]1C[C@@H]2O	=	37
NCCCC[C@H](NC(=O)N[C@@H](CCC(=O)O)C(=O)O)C(=O)O	>	100000
CC(=O)O[C@H]1C(=O)[C@@]2(C)[C@H]([C@H](OC(=O)c3ccccc3)[C@]3(O)C[C@H](OC(=O)[C@H](OC(=O)CCCc4cn(CCCCCC(=O)N(CCCC[C@H](NC(=O)N[C@@H](CCC(=O)O)C(=O)O)C(=O)O)Cc5ccc(Br)cc5)nn4)[C@@H](NC(=O)c4ccccc4)c4ccccc4)C(C)=C1C3(C)C)[C@]1(OC(C)=O)CO[C@@H]1C[C@@H]2O	=	45
CC(=O)O[C@H]1C(=O)[C@@]2(C)[C@H]([C@H](OC(=O)c3ccccc3)[C@]3(O)C[C@H](OC(=O)[C@H](O)[C@@H](NC(=O)c4ccccc4)c4ccccc4)C(C)=C1C3(C)C)[C@]1(OC(C)=O)CO[C@@H]1C[C@@H]2O [PACLITAXEL]	<	20

====

# CC50 at 72 h annotations
assay: Cytotoxicity against HEK293T cells assessed as reduction in cell viability measured after 72 hrs by MTT assay; format: cell-based, HEK-293T; settings: human
property: CC50 at 72 h (nM)

smiles input	rel	reported value
CC(=O)O[C@H]1C(=O)[C@@]2(C)[C@H]([C@H](OC(=O)c3ccccc3)[C@]3(O)C[C@H](OC(=O)[C@H](OC(=O)CCCc4cn(CCCCCC(=O)N(CCCC[C@H](NC(=O)N[C@@H](CCC(=O)O)C(=O)O)C(=O)O)Cc5ccc(Br)cc5)nn4)[C@@H](NC(=O)c4ccccc4)c4ccccc4)C(C)=C1C3(C)C)[C@]1(OC(C)=O)CO[C@@H]1C[C@@H]2O	=	38
CC(=O)O[C@H]1C(=O)[C@@]2(C)[C@H]([C@H](OC(=O)c3ccccc3)[C@]3(O)C[C@H](OC(=O)[C@H](OC(=O)CCCc4cn(CCCCCCCCCCC(=O)N(CCCC[C@H](NC(=O)N[C@@H](CCC(=O)O)C(=O)O)C(=O)O)Cc5ccc(F)cc5)nn4)[C@@H](NC(=O)c4ccccc4)c4ccccc4)C(C)=C1C3(C)C)[C@]1(OC(C)=O)CO[C@@H]1C[C@@H]2O	=	41
CC(=O)O[C@H]1C(=O)[C@@]2(C)[C@H]([C@H](OC(=O)c3ccccc3)[C@]3(O)C[C@H](OC(=O)[C@H](OC(=O)CCCc4cn(CCCCCC(=O)NCCCC[C@H](NC(=O)N[C@@H](CCC(=O)O)C(=O)O)C(=O)O)nn4)[C@@H](NC(=O)c4ccccc4)c4ccccc4)C(C)=C1C3(C)C)[C@]1(OC(C)=O)CO[C@@H]1C[C@@H]2O	<	20

====

assay: Cytotoxicity against human A549 cells assessed as reduction in cell viability measured after 72 hrs by MTT assay; assay type: cell-based
# CC50 at 72 h annotations

smiles input	CC50 at 72 h
CC(=O)O[C@H]1C(=O)[C@@]2(C)[C@H]([C@H](OC(=O)c3ccccc3)[C@]3(O)C[C@H](OC(=O)[C@H](OC(=O)CCCc4cn(CCCCCCCCCCC(=O)N(CCCC[C@H](NC(=O)N[C@@H](CCC(=O)O)C(=O)O)C(=O)O)Cc5ccc(F)cc5)nn4)[C@@H](NC(=O)c4ccccc4)c4ccccc4)C(C)=C1C3(C)C)[C@]1(OC(C)=O)CO[C@@H]1C[C@@H]2O	< 30 nM
CC(=O)O[C@H]1C(=O)[C@@]2(C)[C@H]([C@H](OC(=O)c3ccccc3)[C@]3(O)C[C@H](OC(=O)[C@H](OC(=O)CCCc4cn(CCCCCCCCCCC(=O)N(CCCC[C@H](NC(=O)N[C@@H](CCC(=O)O)C(=O)O)C(=O)O)Cc5ccc(Br)cc5)nn4)[C@@H](NC(=O)c4ccccc4)c4ccccc4)C(C)=C1C3(C)C)[C@]1(OC(C)=O)CO[C@@H]1C[C@@H]2O	< 30 nM
CC(=O)O[C@H]1C(=O)[C@@]2(C)[C@H]([C@H](OC(=O)c3ccccc3)[C@]3(O)C[C@H](OC(=O)[C@H](OC(=O)CCCc4cn(CCCCCCCCCCC(=O)NCCCC[C@H](NC(=O)N[C@@H](CCC(=O)O)C(=O)O)C(=O)O)nn4)[C@@H](NC(=O)c4ccccc4)c4ccccc4)C(C)=C1C3(C)C)[C@]1(OC(C)=O)CO[C@@H]1C[C@@H]2O	20 nM
